Parameter: IC50. Scope: all listed entries.
Target sequence: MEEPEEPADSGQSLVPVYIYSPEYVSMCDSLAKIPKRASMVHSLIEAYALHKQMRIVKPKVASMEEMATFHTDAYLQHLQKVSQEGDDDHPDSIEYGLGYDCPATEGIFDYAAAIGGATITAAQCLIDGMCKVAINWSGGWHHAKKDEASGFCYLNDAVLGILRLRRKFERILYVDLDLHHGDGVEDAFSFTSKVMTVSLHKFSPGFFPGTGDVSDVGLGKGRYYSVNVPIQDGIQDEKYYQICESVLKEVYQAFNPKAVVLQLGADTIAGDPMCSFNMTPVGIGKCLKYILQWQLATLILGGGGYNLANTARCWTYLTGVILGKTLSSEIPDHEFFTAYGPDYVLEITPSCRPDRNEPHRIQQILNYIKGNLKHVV
attribute measured: IC50 (nM)

[[record]]
cpd_smiles = "Cn1cnc2c(NC3CCCCC3)nc(Nc3ccc(OCCCCCCC(=O)NO)cc3)nc21"
data_value = 268

[[record]]
cpd_smiles = "Cn1cnc2c(NC3CCCCC3)nc(Nc3ccc(OCCCCCC(=O)NO)cc3)nc21"
data_value = 225

